TESTED_TARGET: T1, soluble human BLyS (human, UniProt Q9Y275 134-285)
T1 construct: also called hBLyS; human BAFF (BLyS)
METHOD: DELFIA competition, Eu-hBLyS binding to coated BR3
pIC50: −log10 of the molar value.
MEASURED_QUANTITY: pIC50

# BINDER, RECORDED_VALUE
data = [
    ("5B7 IgG expressed in HEK293 cells (antibody, V domains shown, also called 5B7 (293); 5B7-HEK293) VH: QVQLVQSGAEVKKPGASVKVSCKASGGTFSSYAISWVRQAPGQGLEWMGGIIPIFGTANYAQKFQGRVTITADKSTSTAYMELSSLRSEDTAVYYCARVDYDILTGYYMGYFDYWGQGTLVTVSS VL: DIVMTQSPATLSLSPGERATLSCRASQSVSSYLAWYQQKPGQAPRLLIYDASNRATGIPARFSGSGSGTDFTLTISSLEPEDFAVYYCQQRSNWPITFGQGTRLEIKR", 10.28),
    ("6C10 IgG expressed in HEK293 cells (antibody, V domains shown, IgG from HEK293-FreeStyle cells; also called 6C10 (293)) VH: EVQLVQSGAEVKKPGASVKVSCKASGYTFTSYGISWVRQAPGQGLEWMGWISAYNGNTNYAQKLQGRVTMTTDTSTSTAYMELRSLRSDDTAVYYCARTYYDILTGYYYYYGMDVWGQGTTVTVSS VL: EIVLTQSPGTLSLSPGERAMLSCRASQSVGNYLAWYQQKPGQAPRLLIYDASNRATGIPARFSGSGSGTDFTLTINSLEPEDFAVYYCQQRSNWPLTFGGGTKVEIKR", 9.92),
    ("6C10 IgG1 F243A/V264A double mutein expressed in Pichia pastoris (antibody, V domains shown, IgG1 F243A/V264A (EU) double mutein, alpha-2,6-sialylated, from glycoengineered Pichia pastoris; also called 6C10-DM; 6C10-DM (Pichia)) VH: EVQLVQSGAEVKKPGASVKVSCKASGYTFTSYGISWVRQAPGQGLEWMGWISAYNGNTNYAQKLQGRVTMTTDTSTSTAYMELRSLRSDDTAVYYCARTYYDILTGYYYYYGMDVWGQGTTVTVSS VL: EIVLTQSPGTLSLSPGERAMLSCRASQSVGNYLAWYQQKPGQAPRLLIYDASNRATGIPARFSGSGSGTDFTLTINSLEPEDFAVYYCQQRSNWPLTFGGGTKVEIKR", 10.06),
    ("8D12 IgG1 F243A/V264A double mutein expressed in Pichia pastoris (antibody, V domains shown, IgG1 F243A/V264A (EU) double mutein, alpha-2,6-sialylated, from glycoengineered Pichia pastoris; also called 8D12-DM; 8D12-DM (Pichia)) VH: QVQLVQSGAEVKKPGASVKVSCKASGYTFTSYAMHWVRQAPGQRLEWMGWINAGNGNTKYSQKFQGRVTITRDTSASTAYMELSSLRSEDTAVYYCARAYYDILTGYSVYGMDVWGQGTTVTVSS VL: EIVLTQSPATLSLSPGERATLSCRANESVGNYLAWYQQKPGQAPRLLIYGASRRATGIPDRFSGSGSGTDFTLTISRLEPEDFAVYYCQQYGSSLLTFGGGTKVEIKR", 10.00),
    ("5B7 IgG1 F243A/V264A double mutein expressed in Pichia pastoris (antibody, V domains shown, IgG1 F243A/V264A (EU) double mutein, alpha-2,6-sialylated, from glycoengineered Pichia pastoris; also called 5B7-DM; 5B7-DM Pichia) VH: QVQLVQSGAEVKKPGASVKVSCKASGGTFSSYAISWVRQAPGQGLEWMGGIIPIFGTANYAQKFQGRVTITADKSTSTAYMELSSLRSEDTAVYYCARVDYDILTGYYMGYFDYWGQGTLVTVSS VL: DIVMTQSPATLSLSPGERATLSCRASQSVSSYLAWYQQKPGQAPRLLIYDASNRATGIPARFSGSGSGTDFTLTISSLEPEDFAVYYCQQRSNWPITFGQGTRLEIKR", 10.42),
    ("8D12 IgG expressed in HEK293 cells (antibody, V domains shown, IgG from HEK293-FreeStyle cells; also called 8D12 (293)) VH: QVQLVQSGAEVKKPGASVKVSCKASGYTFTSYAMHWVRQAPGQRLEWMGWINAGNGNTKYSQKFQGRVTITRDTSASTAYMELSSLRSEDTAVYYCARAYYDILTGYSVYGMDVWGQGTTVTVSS VL: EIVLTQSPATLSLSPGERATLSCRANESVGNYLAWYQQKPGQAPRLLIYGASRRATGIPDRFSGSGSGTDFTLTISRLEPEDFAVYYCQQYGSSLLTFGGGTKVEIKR", 10.21),
]
